Each recorded value in this set is attributed to patent US11752155B2.

# Target system: hERG channel (Homo sapiens (Human))
# Sequence (Q12809 whole entry): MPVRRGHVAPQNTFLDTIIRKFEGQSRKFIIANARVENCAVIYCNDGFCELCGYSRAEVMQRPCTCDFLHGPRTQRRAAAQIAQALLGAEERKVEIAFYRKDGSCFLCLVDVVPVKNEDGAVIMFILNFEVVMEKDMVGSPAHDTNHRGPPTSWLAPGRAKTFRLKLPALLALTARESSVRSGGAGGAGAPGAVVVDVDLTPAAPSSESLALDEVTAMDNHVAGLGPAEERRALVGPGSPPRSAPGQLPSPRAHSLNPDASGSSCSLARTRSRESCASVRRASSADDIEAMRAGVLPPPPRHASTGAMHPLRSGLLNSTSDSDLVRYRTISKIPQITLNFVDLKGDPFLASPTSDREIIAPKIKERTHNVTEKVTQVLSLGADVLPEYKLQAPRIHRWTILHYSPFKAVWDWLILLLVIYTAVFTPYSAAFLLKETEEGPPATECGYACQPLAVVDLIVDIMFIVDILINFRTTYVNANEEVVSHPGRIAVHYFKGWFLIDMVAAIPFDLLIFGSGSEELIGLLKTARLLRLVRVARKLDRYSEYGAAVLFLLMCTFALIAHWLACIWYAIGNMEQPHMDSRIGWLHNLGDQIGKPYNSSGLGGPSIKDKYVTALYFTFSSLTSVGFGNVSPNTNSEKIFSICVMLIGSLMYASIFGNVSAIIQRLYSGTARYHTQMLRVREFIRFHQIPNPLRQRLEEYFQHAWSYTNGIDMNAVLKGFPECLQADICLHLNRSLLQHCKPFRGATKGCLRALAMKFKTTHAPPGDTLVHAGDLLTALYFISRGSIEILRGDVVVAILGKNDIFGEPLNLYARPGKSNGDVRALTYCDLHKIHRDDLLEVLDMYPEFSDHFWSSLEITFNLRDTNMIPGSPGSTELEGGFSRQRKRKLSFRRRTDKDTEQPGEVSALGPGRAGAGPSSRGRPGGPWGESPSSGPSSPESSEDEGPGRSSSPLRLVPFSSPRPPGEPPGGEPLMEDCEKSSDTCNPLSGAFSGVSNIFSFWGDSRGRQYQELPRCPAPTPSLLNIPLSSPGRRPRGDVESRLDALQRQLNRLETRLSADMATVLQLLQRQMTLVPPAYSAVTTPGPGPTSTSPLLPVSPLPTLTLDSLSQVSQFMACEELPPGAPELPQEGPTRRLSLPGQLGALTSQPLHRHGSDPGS
# Assay explanation: hERG channel inhibition, whole cell patch clamp in HEK293 cells
# Type: cell-based
# Recorded conditions: human, HEK293 cells stably expressing hERG channel, pH 7.35; 10 μM
# label = 1 (yes) if inhibition at 5 min, 10 µM >= 40% else 0 (no)

Below, 6 molecules whose answers are already recorded.
- Molecule: "Cc1ccc(COC(=O)N2CC[C@@H](CNc3nccn4cnnc34)C(F)(F)C2)cc1 [E2-1.2^B′]"
  Class assignment: "0 (no)"
- Molecule: "Cc1ccc(COC(=O)N2CC[C@H](CNc3ncc4cn[nH]c4n3)C(F)(F)C2)cc1 [E1-8.2^B′]"
  Class assignment: "1 (yes)"
- Molecule: "Cc1ccc(COC(=O)N2CC[C@H](CNc3nc4ccccn4n3)C(F)(F)C2)cc1 [E1-9.2^B′]"
  Class assignment: "0 (no)"
- Molecule: "Cc1ccc(COC(=O)N2CC[C@H](CNc3cnccn3)C(F)(F)C2)cc1 [E1-21.2^B′]"
  Class assignment: "0 (no)"
- Molecule: "O=C(OCc1ccc(F)cc1)N1CC[C@H](CNc2nccn3cnnc23)C(F)(F)C1 [E1-1.4^B′]"
  Class assignment: "0 (no)"
- Molecule: "CCc1ccc(COC(=O)N2CC[C@H](CNc3nccn4cnnc34)C(F)(F)C2)cc1 [E1-1.5^B′]"
  Class assignment: "1 (yes)"

For the next question, use this molecule.
Given the entry O=C(OCc1ccc(Cl)cc1)N1CC[C@H](CNc2nccn3cnnc23)C(F)(F)C1 [E1-1.3^B′] , answer whether its inhibition at 5 min, 10 µM meets or surpasses 40%.
0 (no)
